Property: GI50; scope: individual molecules
- Test system: LOX IMVI
- protocol: NCI tumour cell line growth inhibition, 48 h
Calls of active or inactive are those of the source. No stated cut-off is given here; in the data, active = GI50 up to about 1.1 µM and inactive = higher.

Some molecules with known GI50 results, for comparison:
> print(dat)
                                   molecule               result
1  Cc1ccc(-c2sc(-c3ccc(C)cc3)c3c2C2CCC3C2)cc1   > 50 µM (inactive)
2  CCOC(=O)c1c(-c2ccc(OC)cc2)c(C#N)c(=S)n(C2OC(COC(C)=O)C(OC(C)=O)C(OC(C)=O)C2OC(C)=O)c1-c1ccccc1 (stereo not given)  > 100 µM (inactive)
3  c1ccc2c3c([nH]c2c1)C1C2CCCCN2C(c2ccncc2)N1CC3 (stereo not given)   37.2 µM (inactive)
4  COP(=O)(OC)C(N)Cc1c[nH]c2ccccc12 (stereo not given)  > 100 µM (inactive)
5  COc1ccc(/C=C2\CSC/C(=C\c3ccc(OC)c(OC)c3OC)C2=O)c(OC)c1OC   23.4 µM (inactive)
6            CCOC(=O)C(=CN1CCNC1=S)C(=O)OCC  > 100 µM (inactive)

Enquiry: Query: GI50; subject: `Cc1cc([N+](=O)[O-])c(C)c2c1[nH]c1ccc(O)cc12`
Return: 61.5 µM (inactive)

Enquiry: Query: GI50; subject: C=CC(C)(C)C1(CC(OC)OC)C(=O)N(C)c2ccccc21 (stereo not given)
Return: > 25 µM (inactive)

Enquiry: Query: GI50; subject: `CN(C)C=C1C(=O)N(C)C(=O)N(C)C1=O`
Return: > 100 µM (inactive)

Enquiry: Query: GI50; subject: `COC(=O)c1ccccc1N(C(=O)c1ccccc1)c1ccccc1C`
Return: 48.1 µM (inactive)
